molecular target: Perilipin-5 (Homo sapiens) + 1-acylglycerol-3-phosphate O-acyltransferase ABHD5 (Homo sapiens) (UniProt Q00G26+Q8WTS1); assay: ABHD5-PLIN5 interaction inhibitors, dose response, biochemical, luminescence (AID 651677)
Sequence (Q00G26 whole entry, looked up): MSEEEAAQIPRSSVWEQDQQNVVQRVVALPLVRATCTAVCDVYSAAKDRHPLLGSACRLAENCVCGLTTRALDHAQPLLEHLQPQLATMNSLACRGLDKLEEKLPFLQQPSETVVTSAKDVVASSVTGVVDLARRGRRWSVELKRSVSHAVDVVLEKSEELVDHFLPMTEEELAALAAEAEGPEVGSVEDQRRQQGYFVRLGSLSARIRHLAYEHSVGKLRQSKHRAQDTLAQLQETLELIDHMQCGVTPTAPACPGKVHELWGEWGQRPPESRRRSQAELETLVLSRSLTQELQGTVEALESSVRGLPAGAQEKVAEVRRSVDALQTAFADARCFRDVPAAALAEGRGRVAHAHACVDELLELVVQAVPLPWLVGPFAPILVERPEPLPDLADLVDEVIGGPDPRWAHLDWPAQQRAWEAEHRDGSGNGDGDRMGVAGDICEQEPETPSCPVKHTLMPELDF
Sequence (Q8WTS1 whole entry, looked up): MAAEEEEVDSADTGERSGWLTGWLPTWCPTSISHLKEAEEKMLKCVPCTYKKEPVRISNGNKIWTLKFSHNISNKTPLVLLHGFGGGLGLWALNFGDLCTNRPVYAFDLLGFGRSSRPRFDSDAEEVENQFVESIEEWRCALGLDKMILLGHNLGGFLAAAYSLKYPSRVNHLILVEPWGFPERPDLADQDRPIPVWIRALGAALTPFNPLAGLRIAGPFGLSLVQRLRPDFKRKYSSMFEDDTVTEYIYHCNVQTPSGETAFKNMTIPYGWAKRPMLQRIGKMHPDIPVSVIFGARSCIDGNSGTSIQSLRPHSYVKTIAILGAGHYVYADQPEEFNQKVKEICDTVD
The source made the active and inactive calls. How the calls were made is not given here.
Write down the outcome that applies. Available outcomes: T = active, F = inactive

q: How was COC/C=C/C1=CC2=CC(=O)C(C)(OC(=O)C3CCCC3)C(=O)C2=CO1 (configuration not stated) classified in this test?
a: T

q: Try this compound too: `C#CCN(C[C@@H]1[C@@H](OC(=O)Nc2cccs2)[C@@H](OC(=O)Nc2cccs2)Cn2c(=O)ccc(=O)n21)S(=O)(=O)c1ccc(C)cc1`
a: T

q: Try this compound too: `COc1ccccc1C=CC(=O)C=Cc1ccccc1OC`
a: T

q: Try this compound too: `CCC(=O)Nc1cccc(C(=O)/C=C/c2ccccc2)c1`
a: T

q: Try this compound too: `Cc1ccc(NC(=O)CSc2nnc(-c3ccco3)c(-c3ccco3)n2)cc1`
a: T

q: Try this compound too: `CN(C)CCOc1ccc(-c2c(-c3ccccc3)sc3ccccc23)cc1`
a: F

q: Try this compound too: COc1ccc(NC(=O)C(c2ccc(OC)cc2)n2c(=O)c(-c3ccco3)nc3ccccc32)cc1 (configuration not stated)
a: T

q: Try this compound too: CC(C)(C)NC(=O)C(c1cc2ccccc2o1)n1c(=O)c(-c2ccco2)nc2ccccc21 (configuration not stated)
a: T

q: Try this compound too: `CCCCn1c(SCC(=O)NCc2ccco2)nnc1-c1ccoc1C`
a: T

q: Try this compound too: O=C(NC1CCCCC1)C(c1ccccc1)n1c(=O)c(-c2ccco2)nc2ccccc21 (configuration not stated)
a: T

q: Try this compound too: O=C(NC1CCCCC1)C(c1cc2ccccc2o1)n1c(=O)c(-c2ccco2)nc2ccccc21 (configuration not stated)
a: T

q: Try this compound too: CC(CCc1ccco1)NC(=O)CCc1nnc2ccc(NCc3ccccc3Cl)nn12 (configuration not stated)
a: T

q: Try this compound too: O=C(NCc1ccccc1)C(c1ccc(-c2ccccc2)cc1)n1c(=O)c(-c2ccco2)nc2ccccc21 (configuration not stated)
a: T

q: Try this compound too: `CS(=O)(=O)c1ccc(C(=O)NCCN2C(=O)S/C(=C\c3cccnc3)C2=O)cc1[N+](=O)[O-]`
a: T

q: Try this compound too: `Cc1ccc(S(=O)(=O)N2C[C@H]3n4c(=O)ccc(=O)n4C[C@H](OC(=O)Nc4cccs4)[C@@]3(O)C2)cc1`
a: T

q: Try this compound too: NC(=O)CCN1CCN(CCOC2Cc3cc(Cl)ccc3Sc3ccccc32)CC1 (configuration not stated)
a: F

q: Try this compound too: `CC(=O)Oc1c(Cl)cc(N(C(C)=O)S(=O)(=O)c2ccccc2)c2ccccc12`
a: T

q: Try this compound too: O=C(Nc1ccc2c(c1)OCCO2)C(c1ccccc1F)n1c(=O)c(-c2ccco2)nc2ccccc21 (configuration not stated)
a: F

q: Try this compound too: Cc1cccc(C)c1NC(=O)C(c1cccc2ccccc12)n1c(=O)c(-c2ccco2)nc2ccccc21 (configuration not stated)
a: T

q: Try this compound too: `Cc1ccc(CS(=O)(=O)c2ncc(Cl)c(C(=O)Nc3nnc(C(C)C)s3)n2)cc1`
a: T

q: Try this compound too: `CSC(=Nc1ccccc1)N=C(SCc1ccccc1)N(C)C`
a: T

q: Try this compound too: COc1cc2c(cc1OC)C(C)N(CCc1ccc(Cl)cc1)CC2 (configuration not stated)
a: F

q: Try this compound too: `Cc1ccc(S(=O)(=O)N2C[C@@]3(O)Cn4c(=O)ccc(=O)n4C[C@@]3(OC(=O)NCC3CCCCC3)C2)cc1`
a: T

q: Try this compound too: CC(C)(C)NC(=O)C(c1ccnc2ccccc12)n1c(=O)c(-c2ccco2)nc2ccccc21 (configuration not stated)
a: T

q: Try this compound too: `O=C(/C(=C/O)N=Nc1ccc(Cl)cc1)c1ccncc1`
a: T

q: Try this compound too: O=C(NCc1ccccc1)C(C1CC1)n1c(=O)c(-c2ccco2)nc2ccccc21 (configuration not stated)
a: T

q: Try this compound too: `CSc1nnc(NC(=O)c2nc(S(=O)(=O)Cc3ccc(C)cc3)ncc2Cl)s1`
a: T

q: Try this compound too: N#Cc1ccc(C(C(=O)NC2CCCCC2)n2c(=O)c(-c3ccco3)nc3ccccc32)cc1 (configuration not stated)
a: T

q: Try this compound too: CC(=O)OCC1=C(C(=O)O)N2C(=O)C(NC(=O)CCn3nc(C(F)(F)F)c(Br)c3C3CC3)C2SC1 (configuration not stated)
a: T

q: Try this compound too: `O=c1[nH]c(C2CCN(S(=O)(=O)c3ccc(S(=O)(=O)NC4CC4)cc3)CC2)nc2c1nnn2Cc1ccc(F)cc1`
a: T

q: Try this compound too: `O=C(CF)N(O)c1ccc(C=Cc2ccccc2)cc1`
a: F

q: Try this compound too: CCCCCNC(=O)C(c1ccc(C(F)(F)F)cc1)n1c(=O)c(-c2ccco2)nc2ccccc21 (configuration not stated)
a: T

q: Try this compound too: Cc1cccc(C)c1NC(=O)C(c1ccncc1)n1c(=O)c(-c2ccco2)nc2ccccc21 (configuration not stated)
a: F

q: Try this compound too: `N#Cc1ccccc1OCc1cn(CC(=O)c2ccc(O)cc2)nn1`
a: T

q: Try this compound too: `COc1ccc(NC(=S)N(CCCN2CCCC2)Cc2cccn2Cc2ccc(Cl)cc2)cc1Cl`
a: F

q: Try this compound too: `C#CCOCCOCCOCCNc1nc(N2CCN(C(=O)CCCCCCCCCCNC(=O)[C@@H](CCSC)n3cc(CCO)nn3)CC2)nc(N2CCN(C(=O)CCCCCCCCCCNC(=O)[C@@H]([C@H](C)O)n3cc(C)nn3)CC2)n1`
a: F

q: Try this compound too: `C=CC(=O)N1c2ccccc2Sc2ccc(NC(=O)OCC)cc21`
a: T
